assay: HPLC quantitation of serum and liver compound and metabolite concentration; format: in vivo, rabbit (New Zealand White, female); conditions: rabbit, po; liver; read-out: concentration of parent compound in livers
Give concentration at 1680 h for every item shown.
Remember to follow the number with its unit.

Example entries and their recorded answers appear below.
COc1ccccc1[Si](C)(C)COc1cc(C(C)(C)C)c(O)c(C(C)(C)C)c1 ... 80.9 µg/mL
COc1ccc([Si](C)(C)COc2cc(C(C)(C)C)c(O)c(C(C)(C)C)c2)cc1 ... 44.9 µg/mL

Consider the molecule CC(C)(C)c1cc(SC[Si](C)(C)c2ccccc2)cc(C(C)(C)C)c1O [Compound III, reference compound] and give its measured concentration at 1680 h.
323 µg/mL
